Quick reference for TGI among some molecules
system: UACC-62 melanoma; assay: NCI tumour cell line growth inhibition, 48 h

Below: 2 molecules and their reported TGI.
- chemical-structure: "CCOC(=O)c1cc(-c2ccccc2)[nH]c1N/N=C/c1c(Cl)cccc1Cl"
  target: "UACC-62 melanoma"
  assay-value: "> 100 µM"
- chemical-structure: "O=c1oc2c/c(=C\\c3ccccn3)c(=O)c3cccc1c3-2"
  target: "UACC-62 melanoma"
  assay-value: "> 100 µM"

Next molecule, TGI to be filled in.
Need TGI of `CN(C)c1ccc(/C=c2/c3ccccc3n3c2cc(NC(=O)NCCC[N+](C)(C)C)[n+]3C)cc1` , thanks.
> 100 µM

* * *

system: LOX IMVI melanoma; experiment: NCI tumour cell line growth inhibition, 48 h
readout-name: TGI

Below: 5 molecules and their reported TGI.
- molecule: "O=C(c1ccccc1)N1CCC(Nc2nccs2)O1 (configuration not stated)"
  target: "LOX IMVI melanoma"
  assay-value: "> 10 µM"
- molecule: "CSc1nc2nc(C(O)C(O)C(O)CO)cnc2c(=O)[nH]1 (configuration not stated)"
  target: "LOX IMVI melanoma"
  assay-value: "> 100 µM"
- molecule: "N#CCC1(c2ccc(Cl)cc2)NC(=O)c2ccccc21 (configuration not stated)"
  target: "LOX IMVI melanoma"
  assay-value: "> 100 µM"
- molecule: "COCOc1c(C(OCOC)c2cnc(Sc3ccccc3)n2C)ccc(OC)c1OC (configuration not stated)"
  target: "LOX IMVI melanoma"
  assay-value: "> 100 µM"
- molecule: "CCSc1nc(-c2cccs2)nc2ccc(I)cc12"
  target: "LOX IMVI melanoma"
  assay-value: "> 100 µM"

Need TGI of CCCCCCCN(CCCCCCC)CC(O)c1cc2ccccc2c2cc(Br)ccc12 (configuration not stated) , thanks.
> 100 µM

Need TGI of `CC[C@@]1(O)C(=O)NCc2c1cc1n(c2=O)Cc2cc3c(NC(C)=O)cccc3nc2-1` , thanks.
> 100 µM

Need TGI of `Fc1ccc(-c2c(-c3ccncc3)[nH]c3nccnc23)cc1` , thanks.
> 25 µM

Need TGI of `COC(=O)/C=C1\CCCN1CCc1cc2c(cc1CC#N)OCO2` , thanks.
> 100 µM

* * *

test system: A498 renal; assay: NCI tumour cell line growth inhibition, 48 h
*1 amine or outer side, *2 acyl side, *3 side chain or, on linkers, in order; H or OH if unused. Where a SMILES comes first, the peptide text is derived from it. [ ]: non-standard residue; d: D form. The star is where a group is joined. Phe(4-NO2) = N[CH](Cc1ccc([N+](=O)[O-])cc1)C(=O)O; γGlu = O=C(O)[CH](CCC(=O)[*:2])N[*:1]; Boc = CC(C)(C)OC(=O)*; NHOH = ON*
Quick reference for TGI among some compounds

Below: 6 compounds and their reported TGI.
- compound: "COc1ccc(-c2nc3sccn3c2-c2ccnc(NCCCNS(=O)(=O)c3ccc(F)cc3)n2)cc1"
  TGI: "> 100 µM"
- compound: "COc1ccc(/C=C2\\CCC(Cc3ccccc3)(CN(C)C)C2=O)cc1 (stereo unspecified)"
  TGI: "> 100 µM"
- compound: "CC(=O)NC(CCCNC(=O)OCc1ccccc1)C(=O)O (stereo unspecified)"
  TGI: "> 100 µM"
- compound: "COc1cc(/C=C/c2ccccn2)cc(OC)c1OC"
  TGI: "> 10 µM"
- compound: "O=C(N/N=C/c1ccc(Cl)cc1)c1ccccc1Nc1ccccc1C(=O)N/N=C/c1ccc(Cl)cc1"
  TGI: "> 100 µM"
- compound: "Cn1cc(C2=C(c3c(S(C)=O)n(C)c4ccccc34)C(=O)NC2=O)c2ccccc21 (stereo unspecified)"
  TGI: "> 20.5 µM"

Need TGI of `CNc1ncnc2c1cnn2CCCCO` , thanks.
> 100 µM

Need TGI of COC(=O)CCC(NC(=O)OC(C)(C)C)C(=O)NC(Cc1ccc([N+](=O)[O-])cc1)C(=O)NC(CCC(=O)OC)C(=O)OC (stereo unspecified) (Boc-Glu(OMe)-[Phe(4-NO2)]-Glu(OMe)-OMe; configuration not given here) , thanks.
> 100 µM

Need TGI of O=C(NC1C(=O)NNC1c1ccccc1Cl)c1ccccc1 (stereo unspecified) , thanks.
> 100 µM

Need TGI of CCOC(=O)CNC(=O)C(CCC(=O)NO)NC(=O)CCC(N)C(=O)O (stereo unspecified) (γGlu-Glu(NHOH)-Gly-OEt; configuration not given here) , thanks.
> 100 µM

Need TGI of COC(=O)/C(=N/NC(C)(C)C)C(C(=O)OC)C(=O)C(=O)Nc1nc2ccc([N+](=O)[O-])cc2s1 (stereo unspecified) , thanks.
> 100 µM

* * *

tested on: UACC-257 melanoma; test: NCI tumour cell line growth inhibition, 48 h
readout-name: TGI

Below: 10 compounds and their reported TGI.
- compound: "COC(=O)[C@@H]1COC(C(C)(C)C)N1C(=O)C(c1ccccc1)c1ccccc1 (stereo partly specified)"
  TGI: "> 100 µM"
- compound: "CC(=O)O[C@H]1C(=O)[C@@]2(C)C(C(OC(=O)c3ccccc3)[C@]3(O)CC(OC(=O)C(O)C(NC(=O)c4ccccc4)c4cccc(Cl)c4)C(C)=C1C3(C)C)[C@]1(OC(C)=O)CO[C@@H]1C[C@@H]2O (stereo partly specified)"
  TGI: "> 10 µM"
- compound: "Fc1ccc(C2C3CCOc4c(ccc5ccccc45)C3=NN2c2ccccc2)cc1 (stereo unspecified)"
  TGI: "> 100 µM"
- compound: "FC(F)(F)c1ccc(NCc2nc3ccccc3[nH]2)cc1"
  TGI: "67.9 µM"
- compound: "CO/N=C(\\C)c1cccc(Nc2nc3ccccc3c3occc23)c1"
  TGI: "3.69 µM"
- compound: "Fc1ccc(-c2c(-c3ccncc3)[nH]c3nccnc23)cc1"
  TGI: "> 25 µM"
- compound: "O=c1[nH]c(SCc2ccccc2[N+](=O)[O-])nc2nc[nH]c12"
  TGI: "> 100 µM"
- compound: "COc1cc(/C=C/c2ccccn2)cc(OC)c1OC"
  TGI: "> 10 µM"
- compound: "Cc1cc(N)cc(C)c1-c1c(Br)cc(N)cc1Br"
  TGI: "51.8 µM"
- compound: "Cc1cc2cc3ccccc3cc2c(=O)[nH]1"
  TGI: "> 10 µM"

Next compound, TGI to be filled in.
Need TGI of COC(=O)N/N=C(/c1nc2ccc([N+](=O)[O-])cc2[nH]c1=O)C(O)c1ccc(OC)c(OC)c1 (stereo unspecified) , thanks.
> 100 µM

* * *

Quick reference for TGI among some molecules
tested on: NCI-H23 lung; test: NCI tumour cell line growth inhibition, 48 h

Need TGI of NCC1(N2CCOCC2)C2CCCC21CNc1ccccc1 (configuration not stated) , thanks.
> 100 µM

Need TGI of `COC(=O)c1ccc(/C=C2\Oc3cc(O)ccc3C2=O)cc1` , thanks.
> 100 µM

Need TGI of COC1=CC(=O)C2C(C1=O)C(c1ccc(Cl)cc1)[C@@H]2C (some centres not stated) , thanks.
> 100 µM

Need TGI of CC(=O)NC(CCCNC(=O)OCc1ccccc1)C(=O)O (configuration not stated) , thanks.
> 100 µM

Need TGI of `COc1cccc(/C=C\c2ccnc3ccccc23)c1` , thanks.
> 10 µM

Need TGI of `Cn1cnc([N+](=O)[O-])c1Sc1nc2ccc([N+](=O)[O-])cc2[nH]1` , thanks.
72 µM

Need TGI of `N=c1oc2ccc(Cl)cc2cc1C(N)=O` , thanks.
75.1 µM

Need TGI of Cc1ccc(N=NC(C2=NC(=O)CS2)c2nc3ccccc3[nH]2)cc1 (configuration not stated) , thanks.
> 100 µM

Need TGI of OCCCCCCCCCCCOc1ccc(C2OCC3(CC=CCC3)CO2)cc1 (configuration not stated) , thanks.
31.6 µM

Need TGI of `CCSc1nnc(-c2ccccc2)nc1Cc1ccc(OC)cc1` , thanks.
> 100 µM

Need TGI of `N=c1oc2ccccc2cc1C(=O)Nc1nccs1` , thanks.
> 100 µM

Need TGI of COC(=O)C1(C)CCCC2(C)c3cc(OC)ccc3C(=O)C(Br)C12 (configuration not stated) , thanks.
> 10 µM

Need TGI of Cc1c(N=Nc2ccc(Cl)cc2)c(C)n(C2OC(CO)C(O)C(O)C2O)c(=S)c1C#N (configuration not stated) , thanks.
74.3 µM

Need TGI of `Cn1ccoc1=Nc1ccc(Cl)c(Cl)c1` , thanks.
> 10 µM

Need TGI of `Oc1cccc(-c2nc(-c3ccccc3)[nH]c2-c2ccncc2)c1` , thanks.
> 25 µM

Need TGI of Fc1ccc(C2C3CCOc4c(ccc5ccccc45)C3=NN2c2ccccc2)cc1 (configuration not stated) , thanks.
> 100 µM

Need TGI of COc1ccc2c(c1)N(CCO)C1=C(C(=O)OC1)C2c1ccc(OC)c(OC)c1 (configuration not stated) , thanks.
> 100 µM

Hello, the source for this data is PubChem BioAssay (NCI), in case you need it.
